experiment: The drug is tested on Z-010 corresponding to metagenome with ENA study accession number: PRJEB37062 and ENA sample accession number: ERS12561810 for biotransformation under anaerobic condition. The drug concentrations were measured over 9 timepoints collected between 0 and 24 hours of incubation by liquid-chromatography-coupled mass spectrometry (LC–MS); conditions: 2 µM; further: call rule not given here
Measured attribute: Bacterial Biotransformation

Molecule	Measured attribute	Measurement
CC(=O)OCC(CCn1cnc2cnc(N)nc21)COC(C)=O [FAMCICLOVIR]	Bacterial Biotransformation	Compound metabolized
CC(CCc1ccccc1)NCC(O)c1ccc(O)c(C(N)=O)c1 (stereo not drawn) [LABETALOL]	Bacterial Biotransformation	Compound NOT metabolized
CCCN1C[C@H](CSC)C[C@@H]2c3cccc4[nH]cc(c34)C[C@H]21.CS(=O)(=O)O [PERGOLIDE MESYLATE]	Bacterial Biotransformation	Compound NOT metabolized
O=C(CCCN1CCC2(CC1)C(=O)NCN2c1ccccc1)c1ccc(F)cc1 [SPIPERONE]	Bacterial Biotransformation	Compound metabolized
CC(=O)OCC(=O)[C@@]1(OC(C)=O)[C@@H](C)C[C@H]2[C@@H]3C[C@H](F)C4=CC(=O)C=C[C@]4(C)[C@@]3(F)[C@@H](O)C[C@@]21C [DIFLORASONE DIACETATE]	Bacterial Biotransformation	Compound metabolized

Required: Bacterial Biotransformation, one value per molecule below.
1. CC(=O)OCC(=O)NCCCOc1cccc(CN2CCCCC2)c1 [ROXATIDINE ACETATE]
2. COc1ccc(/C=C/C(=O)Nc2ccccc2C(=O)O)cc1OC
3. CCCN(CCC)CCc1cccc2c1CC(=O)N2 [ROPINIROLE]
4. Cc1cc(C)cc(OCC2CNC(=O)O2)c1 (stereo not drawn) [METAXALONE]
5. CCS(=O)(=O)CCn1c([N+](=O)[O-])cnc1C [TINIDAZOLE]

Result:
1. Compound metabolized
2. Compound metabolized
3. Compound NOT metabolized
4. Compound NOT metabolized
5. Compound metabolized

Required: Bacterial Biotransformation, one value per molecule below.
1. COc1ccnc(C[S+]([O-])c2nc3ccc(OC(F)F)cc3[nH]2)c1OC (stereo not drawn) [PANTOPRAZOLE]
2. Nc1nnc(-c2cccc(Cl)c2Cl)c(N)n1 [LAMOTRIGINE]
3. COC1=C(OC)C(=O)C(CCCCCCCCCCO)=C(C)C1=O [IDEBENONE]

Result:
1: Compound metabolized; 2: Compound NOT metabolized; 3: Compound metabolized

Required: Bacterial Biotransformation, one value per molecule below.
1. COc1ccc([C@@H]2Sc3ccccc3N(CCN(C)C)C(=O)[C@@H]2OC(C)=O)cc1 [DILTIAZEM]
2. CCN(CC)CCNC(=O)c1cc(S(C)(=O)=O)ccc1OC [TIAPRIDE]
3. Cc1ccc(NC(=O)c2ccc(CN3CCN(C)CC3)cc2)cc1Nc1nccc(-c2cccnc2)n1 [IMATINIB]
4. CC1=C(CC(=O)O)c2cc(F)ccc2/C1=C\c1ccc([S+](C)[O-])cc1 (stereo not drawn)

Result:
1. Compound metabolized
2. Compound NOT metabolized
3. Compound NOT metabolized
4. Compound NOT metabolized

Request: I would be grateful if you could share the reported Bacterial Biotransformation for O=C1CCc2ccc(OCCCCN3CCN(c4cccc(Cl)c4Cl)CC3)cc2N1 [ARIPIPRAZOLE] .
Result: Compound metabolized
